Counter-ions that a name gives are not always drawn.
Measured melting point accompanies every entry in the list below.

[[record]]
compound = "Cc1c(F)cccc1CCCN(C)[C@H]1CC[C@H](c2ccc3[nH]c(=O)oc3c2)CC1 (as salt: HCl) [Example 48b]"
recorded_metric = "melting point"
reported = "264 to 269 °C"

[[record]]
compound = "CN(CCCc1ccc(F)c(F)c1)[C@H]1CC[C@H](c2ccc3[nH]c(=O)oc3c2)CC1 (as salt: HCl) [Example 40b]"
recorded_metric = "melting point"
reported = "224 to 227 °C"

[[record]]
compound = "O=c1[nH]c2ccc([C@H]3CC[C@H](NCCCc4ccccc4)CC3)cc2o1"
recorded_metric = "melting point"
reported = "166 to 170 °C"

[[record]]
compound = "C[C@H](N[C@H]1CC[C@H](c2ccc3[nH]c(=O)oc3c2)CC1)[C@H](O)c1ccccc1 (stereo in doubt) (as salt: HCl)"
recorded_metric = "melting point"
reported = "251 to 256 °C"

[[record]]
compound = "CCN([C@H]1CC[C@H](c2ccc3[nH]c(=O)oc3c2)CC1)[C@H](C)CCc1ccccc1 (as salt: HCl)"
recorded_metric = "melting point"
reported = "139 to 158 °C"

[[record]]
compound = "O=c1[nH]c2ccc([C@H]3CC[C@H](N(CCCc4ccc(F)cc4)CC4CC4)CC3)cc2o1 (as salt: HCl)"
recorded_metric = "melting point"
reported = "221 to 225 °C"

[[record]]
compound = "CN(CCCc1cccc(F)c1)[C@H]1CC[C@H](c2ccc3[nH]c(=O)oc3c2)CC1 (as salt: HCl) [Example 47b]"
recorded_metric = "melting point"
reported = "210 to 238 °C"

[[record]]
compound = "O=c1[nH]c2ccc([C@H]3CC[C@H](N(CCCc4ccc(F)cc4)Cc4ccoc4)CC3)cc2o1 (as salt: HCl)"
recorded_metric = "melting point"
reported = "225 to 227 °C"


Dear colleague, I am looking for the recorded melting point of the following compound: O=c1[nH]c2ccc([C@H]3CC[C@H](NCC[S+]([O-])c4ccccc4)CC3)cc2o1 (stereo partly drawn) (as salt: HCl)
107 to 110 °C

Dear colleague, I am looking for the recorded melting point of the following compound: CN(CCCc1ccc(C(F)(F)F)cc1)[C@H]1CC[C@H](c2ccc3[nH]c(=O)oc3c2)CC1 (as salt: HCl)
227 to 234 °C

Dear colleague, I am looking for the recorded melting point of the following compound: O=c1[nH]c2ccc([C@H]3CC[C@H](NCCCc4ccc(C(F)(F)F)cc4)CC3)cc2o1 (as salt: HCl)
285 to 295 °C

Dear colleague, I am looking for the recorded melting point of the following compound: CCN([C@H]1CC[C@H](c2ccc3[nH]c(=O)oc3c2)CC1)[C@@H](C)CCc1ccccc1 (as salt: HCl)
221 to 246 °C

Dear colleague, I am looking for the recorded melting point of the following compound: CN(CCCc1ccc(Cl)cc1F)[C@H]1CC[C@H](c2ccc3[nH]c(=O)oc3c2)CC1 (as salt: HCl) [Example 45b]
274 to 275 °C

Dear colleague, I am looking for the recorded melting point of the following compound: CN(CCCc1ccc(Cl)cc1Cl)[C@H]1CC[C@H](c2ccc3[nH]c(=O)oc3c2)CC1 (as salt: HCl)
273 to 279 °C

Dear colleague, I am looking for the recorded melting point of the following compound: CN(CCCc1ccccc1)[C@H]1CC[C@H](c2ccc3[nH]c(=O)oc3c2)CC1
58 to 62 °C

These measurements were taken from patent US6794402B2.
